Reported IC50 values follow for various compounds
# study.target: Brd4 bromodomain 1 (BRD4(1)) (Homo sapiens)
# assay.name: Inhibition of tetra-acetylated histone H4 binding to Brd4 bromodomain 1, measured by FRET (HTRF)
# Design: made in house; host or cells: E. coli BL21(DE3)
# condition.parameters: 2 h at room temperature

compound	IC50
Cc1n[nH]c(C)c1-c1cc(-c2c(C)noc2C)cc2[nH]nc(C)c12 [Example Compound 180]	≤ 300 nM
Cc1nc2c(-c3cn(C)nc3C(F)(F)F)cc(-c3c(C)noc3C)cc2[nH]1 [Example Compound 115]	300 to 3000 nM
Cc1nc2c(-c3c(C)nn(C)c3C)cc(-c3c(C)noc3C)cc2[nH]1 [Example Compound 49]	≤ 300 nM
Cc1nc2c(-c3cccc4cccnc34)cc(-c3c(C)noc3C)cc2[nH]1 [Example Compound 111]	300 to 3000 nM
Cc1noc(C)c1-c1cc(-c2c(C)noc2C)c2nn(C)cc2c1 [Example Compound 55]	≤ 300 nM

The compound listed as CNC(=O)c1onc(C)c1-c1cc(-c2c(C)noc2C)cc2[nH]c(C)nc12 [Example Compound 67] has a reported IC50 of ≤ 300 nM

// IC50 lookup, compound = COc1cccc(-c2cc(-c3c(C)noc3C)cc3[nH]c(C)nc23)c1F [Example Compound 152] , result: ≤ 300 nM

The compound listed as Cc1noc(C)c1-c1cc(-c2cccc(C#N)c2C)c2nc(NC3CCOCC3)[nH]c2c1 [Example Compound 204] has a reported IC50 of ≤ 300 nM

----------
property.label: melting point

Some compounds with recorded melting point:
compound	melting point
Cc1noc(C)c1-c1cc(-c2c(C)nn(C)c2C)c2[nH]c([S+](C)[O-])nc2c1 (stereo not shown)	242 to 244 °C
Cc1ccc(C(N)=O)cc1-c1cc(-c2c(C)noc2C)cc2[nH]c(N3CCN(C)CC3)nc12	133 to 135 °C
Cc1noc(C)c1-c1cc(-c2c(C)noc2C)c2nc[nH]c2c1Br	133 to 135 °C
Cc1ccncc1-c1cc(-c2c(C)noc2C)cc2[nH]c(N3CCOCC3)nc12	137 to 141 °C
Cc1noc(C)c1-c1cc(-c2c(C)nn(C)c2C)c2[nH]c(S(C)(=O)=O)nc2c1	254 to 256 °C

GET /value?item= Cc1noc(C)c1-c1cc(-c2c(C)noc2C)c2c(C)n[nH]c2c1 &field=melting point returns 228 to 230 °C

----------
# study.target: Brd4 bromodomain 1 (BRD4(1)) (Homo sapiens, UniProt O60885)
# assay.name: Inhibition of tetra-acetylated histone H4 binding to Brd4 bromodomain 1, measured by FRET (HTRF)
# Design: made in house; host or cells: E. coli BL21(DE3)
# condition.parameters: 2 h at room temperature
pIC50: −log10 of the molar value.
Listed here are compounds together with their documented pIC50.

A selection of reference data follows.
query.smiles	pIC50
Cc1noc(C)c1-c1cc(-c2cccc(C(N)=O)c2C)c2nc(NC3CCOCC3)[nH]c2c1	≥ 6.52
Cc1nc2c(-c3ccccc3C(F)(F)F)cc(-c3c(C)noc3C)cc2[nH]1	5.52 to 6.52
Cc1noc(C)c1-c1cc(Nc2ccccc2)c2nncn2c1	≥ 6.52
COc1ccccc1S(=O)(=O)Nc1cc(-c2c(C)noc2C)cc2[nH]cnc12	5.52 to 6.52

So for Cc1noc(C)c1-c1cc(-c2c(C)noc2C)c2nc(NCc3ccccc3)[nH]c2c1 , the logged pIC50 turned out to be ≥ 6.52

# pIC50 of COc1ncccc1-c1cc(-c2c(C)noc2C)cc2[nH]cnc12 = ≥ 6.52

----------
# study.target: Brd4 bromodomain 1 (BRD4(1)) (Homo sapiens, UniProt O60885)
# assay.name: Inhibition of tetra-acetylated histone H4 binding to Brd4 bromodomain 1, measured by FRET (HTRF)
# Set-up: made in house; host or cells: E. coli BL21(DE3)
# condition.parameters: 2 h at room temperature
pIC50: −log10 of the molar value.
Recorded measurements of pIC50, one per entry

Sample answers from the record:
compound	pIC50
Cc1noc(C)c1-c1cc(-c2c(C)nn(C)c2C)c2c(c1)ncn2C [Example Compound 182]	≥ 6.52
Cc1ncccc1-c1cc(-c2c(C)noc2C)cc2[nH]c(N3CCN(C)CC3)nc12 [Example Compound 183]	≥ 6.52
Cc1nc2c(-c3ccccc3Cl)cc(-c3c(C)noc3C)cc2[nH]1 [Example Compound 144]	≥ 6.52
Cc1noc(C)c1-c1cc(-c2c(C)noc2C)c2c(cnn2C)c1 [Example Compound 54]	≥ 6.52

Let me check: Cc1nc2c(-c3cccc(OC(F)(F)F)c3)cc(-c3c(C)noc3C)cc2[nH]1 [Example Compound 96] , system Brd4 bromodomain 1 (BRD4(1)) (Homo sapiens, UniProt O60885), measured pIC50 is ≥ 6.52

pIC50 of Cc1nc2c(-c3csnc3C)cc(-c3csnc3C)cc2[nH]1 [Example Compound 139] , assay on Brd4 bromodomain 1 (BRD4(1)) (Homo sapiens, UniProt O60885), is 5.52 to 6.52

Kindly note: Brd4 bromodomain 1 (BRD4(1)) (Homo sapiens, UniProt O60885), Cc1nc2c(-c3ccccc3OC(F)(F)F)cc(-c3c(C)noc3C)cc2[nH]1 [Example Compound 77] , pIC50 value reported: ≥ 6.52

Readout pIC50 for Cc1nc2c(Oc3cc(C(N)=O)ccc3C)cc(-c3c(C)noc3C)cc2[nH]1 [Example Compound 174] , test system Brd4 bromodomain 1 (BRD4(1)) (Homo sapiens, UniProt O60885), was ≥ 6.52

Item: Cc1noc(C)c1-c1cc(-c2c(C)noc2C)c2nc(N3CCN(C)CC3)[nH]c2c1 [Example Compound 231] | System: Brd4 bromodomain 1 (BRD4(1)) (Homo sapiens, UniProt O60885) | pIC50: ≥ 6.52

With Brd4 bromodomain 1 (BRD4(1)) (Homo sapiens, UniProt O60885) as the test system, CNc1nc2c(-c3cnccc3C)cc(-c3c(C)noc3C)cc2[nH]1 [Example Compound 214] showed pIC50 of ≥ 6.52

Summary: Cc1nc2c(-c3c(C)noc3C)cc(-c3c(C)noc3C)nc2[nH]1 [Example Compound 176] , Brd4 bromodomain 1 (BRD4(1)) (Homo sapiens, UniProt O60885), pIC50 = 5.52 to 6.52

Field pIC50 (system: Brd4 bromodomain 1 (BRD4(1)) (Homo sapiens, UniProt O60885)) for entry Cc1nc2c(-c3cc(F)ccc3C#N)cc(-c3c(C)noc3C)cc2[nH]1 [Example Compound 94] = ≥ 6.52

Observed pIC50, Brd4 bromodomain 1 (BRD4(1)) (Homo sapiens, UniProt O60885), Cc1noc(C)c1-c1cc(-c2c(C)noc2C)c2nn[nH]c2c1 [Example Compound 95] : 5.52 to 6.52

Field pIC50 (system: Brd4 bromodomain 1 (BRD4(1)) (Homo sapiens, UniProt O60885)) for entry Cc1noc(C)c1-c1cc(-c2c(C)noc2C)c2nc(C(C)C)[nH]c2c1 [Example Compound 45] = ≥ 6.52

Fill in: Brd4 bromodomain 1 (BRD4(1)) (Homo sapiens, UniProt O60885) pIC50 for Cc1noc(C)c1-c1cc(-c2c(C)noc2C)c2nc(C3CCOCC3)[nH]c2c1 [Example Compound 228] = ≥ 6.52

Lab entry: Brd4 bromodomain 1 (BRD4(1)) (Homo sapiens, UniProt O60885) assay, compound Cc1noc(C)c1-c1cc(-c2cccc(C#N)c2C)c2nc[nH]c2c1 [Example Compound 57] , pIC50 = ≥ 6.52

----------
# study.target: Brd4 bromodomain 1 (BRD4(1)) (Homo sapiens)
# assay.name: Inhibition of tetra-acetylated histone H4 binding to Brd4 bromodomain 1, measured by FRET (HTRF)
# Parameters: to Brd4 bromodomain 1 (BRD4(1) as Measured by FRET); made in house; host or cells: E. coli BL21(DE3)
# condition.parameters: 2 h at room temperature
pIC50: −log10 of the molar value.
property.label: pIC50

Entry Cc1ncccc1-c1cc(-c2c(C)noc2C)cc2cn[nH]c12 ; pIC50 = ≥ 6.52

----------
The following compounds are shown together with reported pIC50 values.
# study.target: Brd4 bromodomain 1 (BRD4(1)) (Homo sapiens)
# assay.name: Inhibition of tetra-acetylated histone H4 binding to Brd4 bromodomain 1, measured by FRET (HTRF)
# Design: made in house; host or cells: E. coli BL21(DE3)
# condition.parameters: 2 h at room temperature
pIC50: −log10 of the molar value.

// worked examples, pIC50 included
query.smiles	pIC50
Cc1noc(C)c1-c1cc(-c2ccccc2CN(C)C)c2nc[nH]c2c1	5.52 to 6.52
Cc1nc2c(-c3cccc4ccncc34)cc(-c3c(C)noc3C)cc2[nH]1	≥ 6.52
Cc1noc(C)c1-c1cc(-c2cc(N)c(=O)n(C)c2)c2nc[nH]c2c1	5.52 to 6.52

Now, please, on to the next compound.
Briefly, pIC50 measured for Cc1nc2c(-c3cc(C(=O)O)ccc3C)cc(-c3c(C)noc3C)cc2[nH]1 : 5.52 to 6.52
